# Experiment Summary: Acute toxicity in Mice
# Format: in vivo, mice (SWISS, EOPS, NMRI/Han, female)
# Recorded Conditions: oral administration
# Experimental: The compounds are administered in increasing doses (in arithmetic progression) to groups of five .female. SWISS, EOPS, NMRI/Han mice of the EVIC CEBA strain and having a mean weight of 22 g. […] The LD 50's are calculated according to the method of KARBER and BEHRENS (B.) (Arch. Exp. Path. Pharmakol. 1935, 177, 379-388). […]
Below: a set of entries, each annotated with reported LD 100 (minimum lethal dose).
Quantity: LD 100 (minimum lethal dose) (mg/kg)

# Molecule, Value Unit, Quantitative Readout
measured = [
    ("OC(CN1CCN(c2cccc(C(F)(F)F)c2)CC1)CN1CCN(c2cccc(C(F)(F)F)c2)CC1 [LJ 1145]", "mg/kg", 1000),
    ("O=C1CCCCC1CN1CCN(c2ccc(F)c(C(F)(F)F)c2)CC1 (centres unmarked)", "mg/kg", 1250),
    ("O=C1CCCCCC1CN1CCN(c2cccc(C(F)(F)F)c2)CC1 (centres unmarked)", "mg/kg", 2500),
    ("O=C1CCCCC1CN1CCN(c2cccc(C(F)(F)F)c2)CC1 (centres unmarked)", "mg/kg", 2250),
    ("OC(CN1CCN(c2cccc(C(F)(F)F)c2)CC1)CN1CCN(c2cccc(C(F)(F)F)c2)CC1 [LJ 1154]", "mg/kg", 200),
]

====

MTD at 360 h for assorted molecules
# Experiment Summary: Acute toxicity in Mice
# Format: in vivo, mice (SWISS, EOPS, NMRI/Han, female)
# Recorded Conditions: mouse, in vivo, po, oral administration, read-out: LD 0 (maximum dose tolerated)

# Molecule, MTD at 360 h
data = [
    ("O=C1CCCCC1CN1CCN(c2ccc(F)c(C(F)(F)F)c2)CC1 (centres unmarked)", "625 mg/kg"),
    ("OCC(O)CN1CCN(c2ccc(F)c(C(F)(F)F)c2)CC1 (centres unmarked)", "500 mg/kg"),
    ("OCCN1CCN(c2ccc(F)c(C(F)(F)F)c2)CC1", "300 mg/kg"),
    ("OC1CCCCC1N1CCN(c2cccc(C(F)(F)F)c2)CC1 (centres unmarked)", "250 mg/kg"),
    ("OCC(O)CN1CCN(c2cccc(C(F)(F)F)c2)CC1 (centres unmarked)", "750 mg/kg"),
    ("OC1CCCCC1CN1CCN(c2cccc(C(F)(F)F)c2)CC1 (centres unmarked)", "750 mg/kg"),
    ("O=C1CCCC1CN1CCN(c2cccc(C(F)(F)F)c2)CC1 (centres unmarked)", "500 mg/kg"),
    ("O=C1CCCCC1CN1CCN(c2cccc(C(F)(F)F)c2)CC1 (centres unmarked)", "1250 mg/kg"),
    ("O=C1CCCCCC1CN1CCN(c2cccc(C(F)(F)F)c2)CC1 (centres unmarked)", "1500 mg/kg"),
    ("O=C(CN1CCN(c2cccc(C(F)(F)F)c2)CC1)CN1CCN(c2cccc(C(F)(F)F)c2)CC1", "125 mg/kg"),
    ("OC(CN1CCN(c2ccc(F)c(C(F)(F)F)c2)CC1)CN1CCN(c2ccc(F)c(C(F)(F)F)c2)CC1", "50 mg/kg"),
]
